Target: human ether-à-go-go-related gene (hERG) potassium channel (human);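 note: peak tail current of the secondary pulse compared with the same well before compound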
Test: primary screen, population patch clamp on CHO cells stably expressing hERG; higher = less effect of the substance
Screen size: about 310,000 compounds; about 14,000 (4.5%) showed an effect of 50% or more. The effect is printed as a negative number. The list comes from a sample in which strong results are over-represented; it also holds close analogues and randomly drawn compounds.
Listing: hERG current change (%, negative = inhibition) at 10uM of selected compounds
Readout Name: hERG current change (%, negative = inhibition) at 10uM (%)

| Compound | Readout Value |
| --- | --- |
| Cc1ccccc1SCC(=O)Nc1cc(C(F)(F)F)ccc1N1CCOCC1 | -1.77 |
| CCOC(=O)c1nc2cc3n(c(C)c-2c1C)C(C)C(CC)=C3C.Cl (stereo not drawn) | -66.7 |
| CCc1ccccc1NC(=O)Cc1cn(C)c2ccccc12 | 3.59 |
| CCCn1c(SCC(=O)Nc2c(C)cccc2CC)nnc1C(C)C | 3.71 |
| CC(C)C(=O)N1CCN(c2ccccc2NC(=S)NC(=O)Cc2ccccc2)CC1 | -4.92 |
| Cc1ccccc1NC(=O)C(Cc1ccccc1)n1cccc1 (stereo not drawn) | -0.159 |
| Cc1cccn2c(=O)c3cc(C(=O)NCc4ccco4)c(=N)n(C4CCCC4)c3nc12 | -78.8 |
| CCOC(=O)c1nc(C)nc(Sc2n[nH]c(-c3cc(Cl)cc(Cl)c3)n2)c1C | 4.12 |
| CCCC(=O)Nc1ccccc1N1CCN(C(=O)C(C)C)CC1 | 11.4 |
| Cc1cccn2c(=O)c3cc(S(=O)(=O)c4ccc(Br)cc4)c(=N)n(C4CCCC4)c3nc12 | 9.92 |
| COc1ccc(OC)c(CN2CCN(C(=O)c3ccco3)CC2)c1.O=C(O)C(=O)O | 0.201 |
| CCOc1ccc2c(c1)N(C(=O)CN1C(=O)CCC1=O)C(C)(C)C=C2C | -22.8 |
| Cc1ccccc1NC(=O)Cc1cn(C)c2ccccc12 | 15.1 |
| CCOC(=O)c1n[nH]n(-c2cc(Cl)cc(Cl)c2)c1=O | 25.7 |
| CN1CCN(c2ccccc2NC(=O)C(Cc2ccccc2)n2cccc2)CC1 (stereo not drawn) | -65.6 |
| Cc1ccccc1C(NC(N)=O)c1ccccc1 (stereo not drawn) | 0.289 |
| CCOC(=O)c1nc2cc3n(c(C)c-2c1C)C(C)C(C)=C3C.Cl (stereo not drawn) | -42.8 |
| O=C(O)CNC(=O)c1ccccc1NC(=O)c1ccco1 | 7.93 |
| COc1cc(C2CC(=O)N3CN(Cc4ccco4)CSC3=C2C#N)ccc1OCc1ccccc1 (stereo not drawn) | 15.1 |
| CCOC(=O)c1nc2ccccc2c(C)c1C.Cl | -5.73 |
| Cc1cccn2c(=O)c3cc(S(=O)(=O)c4ccc(Br)cc4)c(=N)n(C4CCCCC4)c3nc12 | 18.6 |

---

Biological target: human ether-à-go-go-related gene (hERG) potassium channel (human, UniProt Q12809);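 note: peak tail current of the secondary pulse compared with the same well before compound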
Sequence (Q12809 whole entry, looked up): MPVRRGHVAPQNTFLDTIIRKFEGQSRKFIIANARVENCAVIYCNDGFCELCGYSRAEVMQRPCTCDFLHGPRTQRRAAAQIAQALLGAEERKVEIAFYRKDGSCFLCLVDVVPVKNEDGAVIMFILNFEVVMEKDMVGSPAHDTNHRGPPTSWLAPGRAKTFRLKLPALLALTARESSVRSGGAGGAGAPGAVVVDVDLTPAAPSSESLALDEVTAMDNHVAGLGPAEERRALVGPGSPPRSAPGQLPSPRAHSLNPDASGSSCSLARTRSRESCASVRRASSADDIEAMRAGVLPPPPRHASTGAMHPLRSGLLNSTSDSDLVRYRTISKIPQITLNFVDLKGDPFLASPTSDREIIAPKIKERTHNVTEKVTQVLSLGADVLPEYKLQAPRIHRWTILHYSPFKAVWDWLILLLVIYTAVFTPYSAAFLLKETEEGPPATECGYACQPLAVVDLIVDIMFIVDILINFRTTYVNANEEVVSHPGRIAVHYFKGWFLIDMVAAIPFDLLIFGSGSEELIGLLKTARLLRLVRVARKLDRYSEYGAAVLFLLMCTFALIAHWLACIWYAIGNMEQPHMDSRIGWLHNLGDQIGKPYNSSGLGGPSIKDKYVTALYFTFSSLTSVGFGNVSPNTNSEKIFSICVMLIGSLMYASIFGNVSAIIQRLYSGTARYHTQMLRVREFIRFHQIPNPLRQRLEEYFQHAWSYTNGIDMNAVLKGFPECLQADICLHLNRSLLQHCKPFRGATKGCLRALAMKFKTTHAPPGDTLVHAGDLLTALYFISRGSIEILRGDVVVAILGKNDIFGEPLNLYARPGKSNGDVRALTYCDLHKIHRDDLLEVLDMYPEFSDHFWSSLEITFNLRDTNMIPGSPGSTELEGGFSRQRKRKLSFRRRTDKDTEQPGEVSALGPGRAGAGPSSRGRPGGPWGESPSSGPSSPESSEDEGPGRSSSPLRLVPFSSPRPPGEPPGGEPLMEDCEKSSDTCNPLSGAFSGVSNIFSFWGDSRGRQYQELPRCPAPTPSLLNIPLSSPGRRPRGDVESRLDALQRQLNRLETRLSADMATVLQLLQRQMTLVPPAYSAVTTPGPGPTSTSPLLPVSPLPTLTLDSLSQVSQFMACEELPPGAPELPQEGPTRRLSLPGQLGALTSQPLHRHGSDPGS
Experiment: primary screen, population patch clamp on CHO cells stably expressing hERG; higher = less effect of the substance
Experimental: Briefly, Chinese hamster ovary (CHO) cells stably expressing the hERG channel were dislodged from tissue culture flasks and dispensed into PPC plates. […] During the recording, background leak currents were estimated by a 100 ms step to -80 mV from an initial holding potential of -70 mV and subtracted from the subsequent current measurement. The campaign was conducted in two phases using slight differences in recording protocol. […]
The whole screen tested about 310,000 compounds, of which about 14,000 (4.5%) showed an effect of 50% or more. Effects have a minus sign here. The full list was thinned out, with strong results kept by preference.
Readout Name: hERG current change (%, negative = inhibition) at 10uM (%)

| Molecule | Target Under Test | Readout Value |
| --- | --- | --- |
| CCC(C)(C)n1nnnc1C(c1cccnc1)N1CCCc2ccccc21 (stereo not shown) | human ether-à-go-go-related gene (hERG) potassium channel (human, UniProt Q12809) | -19.6 |
| CCCc1cc(=O)oc2cc(C)cc(OCC(=O)NCC(O)c3ccccc3)c12 (stereo not shown) | human ether-à-go-go-related gene (hERG) potassium channel (human, UniProt Q12809) | 13.5 |
| Cc1ccc(C2CC(=O)C=C(O)C2)cc1 (stereo not shown) | human ether-à-go-go-related gene (hERG) potassium channel (human, UniProt Q12809) | 3.29 |
| O=C(OCc1ccc(Br)cc1)c1cccc(S(=O)(=O)N2CCCC2)c1 | human ether-à-go-go-related gene (hERG) potassium channel (human, UniProt Q12809) | -6.47 |
| O=C(C1CCC(CNS(=O)(=O)c2ccccc2)CC1)N1CCCCC1 (stereo not shown) | human ether-à-go-go-related gene (hERG) potassium channel (human, UniProt Q12809) | -1.89 |
| O=C(Nc1ccc2c(c1)C(=O)OC2)c1ccc(C(F)(F)F)cc1 | human ether-à-go-go-related gene (hERG) potassium channel (human, UniProt Q12809) | 17.3 |
| O=C(Oc1ccc2c3c(c(=O)oc2c1)CCCC3)c1cccs1 | human ether-à-go-go-related gene (hERG) potassium channel (human, UniProt Q12809) | -4.43 |
| CCn1c(SCC(=O)Nc2cc(S(=O)(=O)N3CCOCC3)ccc2OC)nnc1-c1ccncc1 | human ether-à-go-go-related gene (hERG) potassium channel (human, UniProt Q12809) | 13.8 |
| O=C(N/N=C/c1ccccc1C(=O)O)c1ccncc1 | human ether-à-go-go-related gene (hERG) potassium channel (human, UniProt Q12809) | 18.3 |
| O=C(OCc1cc(=O)n2cc(Br)ccc2n1)C1COc2ccccc2O1 (stereo not shown) | human ether-à-go-go-related gene (hERG) potassium channel (human, UniProt Q12809) | -15.5 |
